# Tested on: rheumatoid arthritis model, DBA-1J Mice [류마티스 관절염 모델]
# Method: Arthritis score in rheumatoid arthritis animal model, dose regimen study, Experiment 6
# Type: in vivo, mouse
# Assay context: Day 5; MTX 2 mg/kg/2day PO, HCQ 80 mg/kg/day QD PO, PG 25 mg/kg/day QD PO, TFC 10 mg/kg/day BID PO (G3-G6)
Assay metric: Arthritis score (total score)
The reply should contain only the number, in total score.

// below: answered molecules
{"columns": ["Molecule", "Test value"],
 "data": [
  ["CCN(CCO)CCCC(C)Nc1ccnc2cc(Cl)ccc12 (stereo not shown) [히드록시클로로퀸, Hydroxychloroquine]", 6.5],
  ["C[C@@H]1CCN(C(=O)CC#N)C[C@@H]1N(C)c1ncnc2[nH]ccc12", 6.5],
  ["[H]/N=C(\\N/C(=N/[H])Nc1ccc(Cl)cc1)NC(C)C", 6.7]
]}

Consider the additional molecule presented here.
Exam item: // Arthritis score lookup, key: CN(Cc1cnc2nc(N)nc(N)c2n1)c1ccc(C(=O)N[C@@H](CCC(=O)O)C(=O)O)cc1 [메토트렉세이트, Methotrexate]
Marked response: 5.0

----------
# System: rheumatoid arthritis model, DBA-1J Mice [류마티스 관절염 모델]
# Method: Arthritis score in rheumatoid arthritis animal model, dose regimen study, Experiment 6
# Format: in vivo, mouse
# Assay context: Day 7; MTX 2 mg/kg/2day PO, HCQ 80 mg/kg/day QD PO, PG 25 mg/kg/day QD PO, TFC 10 mg/kg/day BID PO (G3-G6)
Listing of recorded Arthritis score by entry.
Answer with the number, then the unit.

Exam item: Find the measured Arthritis score: item CN(Cc1cnc2nc(N)nc(N)c2n1)c1ccc(C(=O)N[C@@H](CCC(=O)O)C(=O)O)cc1 [메토트렉세이트, Methotrexate] , target or system rheumatoid arthritis model, DBA-1J Mice [류마티스 관절염 모델].
Marked response: 6.0±2.9 total score

Exam item: Given the entry C[C@@H]1CCN(C(=O)CC#N)C[C@@H]1N(C)c1ncnc2[nH]ccc12 , what Arthritis score was observed with rheumatoid arthritis model, DBA-1J Mice [류마티스 관절염 모델]?
Marked response: 8.7±2.3 total score

Exam item: Give Arthritis score (rheumatoid arthritis model, DBA-1J Mice [류마티스 관절염 모델]) of the following compound: [H]/N=C(\N/C(=N/[H])Nc1ccc(Cl)cc1)NC(C)C
Marked response: 8.3±1.5 total score

Exam item: Which measured Arthritis score belongs to CCN(CCO)CCCC(C)Nc1ccnc2cc(Cl)ccc12 (stereo not shown) [히드록시클로로퀸, Hydroxychloroquine] , tested on rheumatoid arthritis model, DBA-1J Mice [류마티스 관절염 모델]?
Marked response: 9.3±2.0 total score

----------
# Tested on: rheumatoid arthritis model, DBA-1J Mice [류마티스 관절염 모델]
# Method: Arthritis score in rheumatoid arthritis animal model, dose regimen study, Experiment 6
# Type: in vivo, mouse
# Assay context: Day 2; MTX 2 mg/kg/2day PO, HCQ 80 mg/kg/day QD PO, PG 25 mg/kg/day QD PO, TFC 10 mg/kg/day BID PO (G3-G6)
Assay metric: Arthritis score (total score)
Answer in total score, number only, no unit symbol.

Solved cases (3 shown):
{"columns": ["Compound", "Test value"],
 "data": [
  ["[H]/N=C(\\N/C(=N/[H])Nc1ccc(Cl)cc1)NC(C)C", 4.5],
  ["CCN(CCO)CCCC(C)Nc1ccnc2cc(Cl)ccc12 (stereo not shown) [히드록시클로로퀸, Hydroxychloroquine]", 4.0],
  ["CN(Cc1cnc2nc(N)nc(N)c2n1)c1ccc(C(=O)N[C@@H](CCC(=O)O)C(=O)O)cc1 [메토트렉세이트, Methotrexate]", 3.7]
]}

Below: the item to evaluate.
Exam item: What value of measured Arthritis score is listed for C[C@@H]1CCN(C(=O)CC#N)C[C@@H]1N(C)c1ncnc2[nH]ccc12 ?
Marked response: 4.5
